# test-target: Calmodulin-1 (Homo sapiens)
# test-protocol: calcium-bound CALM1 binders on microarrays, profiling panel, artefact control for SMM control-protein annotation, biochemical, small-molecule microarray, Cy5-labelled CALM1, plus calcium (AID 1112);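 also: score merges spot fluorescence with signal to noise from triplicate slides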
# condition-notes: Cy5-CALM1 binding fluorescence, higher = more signal
Listed here are molecules together with their documented composite z-score.

molecule | observed-result
C=C(CCCC)C(=O)CC[C@H](OC(C)=O)c1cccc(OCCO)c1 | -0.918

Please look at this molecule and report its composite z-score: CC(C)C[C@@H]1NC(=O)[C@@H]2C[C@H](C(=O)NCCCCCN)[C@H](c3cccc(OCCO)c3)N2C1=O
0.615

Please look at this molecule and report its composite z-score: COC(=O)[C@@]1(Cc2ccc(OC)cc2)[C@H]2c3cc(C(=O)N(C)C)n(Cc4cccc5ccccc45)c3C[C@H]2CN1C(=O)c1ccccc1
0.94

Please look at this molecule and report its composite z-score: Cc1ccc(C(C)CC(O)C2C=CC3C(=O)N(c4ccccc4)C(=O)C3N2Nc2ccc([N+](=O)[O-])cc2)o1 (centres undefined)
-0.284

###

# Test system: Inhibin beta A chain (activin A)
# test-protocol: INHBA (activin A) binders on microarrays, primary screen, biochemical, small-molecule microarray, 635 nm fluorescence scan (AID 1107);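 also: mouse activin A protein probed at 4.33 µg/mL on printed slides; score merges bound-protein fluorescence near 667 nm with spot signal-to-noise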
# condition-notes: small-molecule microarray binding, higher = more signal
Listed here are compounds together with their documented composite z-score.
Please reply with the value in numeric form only.

Examples with answers:
compound | composite z-score
CCOC(=O)C=Cc1cc([N+](=O)[O-])ccc1O | -0.855
COCCOC(=O)N1C(=O)[C@@]2(c3cc(C#Cc4ccc(OC)cc4)ccc31)[C@H](c1ccc(O)cc1)N1[C@H](c3ccccc3)[C@H](c3ccccc3)OC(=O)[C@H]1[C@@H]2C(=O)NC[C@H](O)c1ccccc1 | 0.113
C=CCC(OC(C)=O)[C@@H]1[C@@H](N(Cc2ccc(-c3cccc(C(F)(F)F)c3)o2)C(=O)c2ccc(-c3ccccc3)cc2)c2cc(OCCCO)ccc2N1C(=O)c1ccc(-c2ccccc2)cc1 (stereo partly specified) | 1.32
Cc1ccc(S[C@]2(C(=O)NCC(C)C)CC(=O)N(Cc3cc(C(F)(F)F)cc(C(F)(F)F)c3)[C@@H]2c2ccc(CO)cc2I)cc1 | 0.923
COc1ccc(C#Cc2ccc3c(c2)[C@]2(C(=O)N3)[C@H](c3ccccc3OCCO)N3[C@H](c4ccccc4)[C@H](c4ccccc4)OC(=O)[C@H]3[C@@H]2C(=O)O)cc1 | 0.54

Please look at this compound and report its composite z-score: CCCCN1CC=CC23O[C@@H]4/C=C\CCC(C)OC(=O)C4[C@H]2C(=O)N(CCCCCO)[C@@H]3C1=O (stereo partly specified)
-0.323

###

Listed here are molecules together with their documented z-score.
# test-protocol: PSAC antagonists in infected red cells, primary screen, cell-based, P. falciparum Indochina, OD700, 2 h (AID 1155);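 also: lysis reports solute entry through the parasite surface anion channel PSAC; channel blockers reduce lysis of infected cells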
# condition-notes: P. falciparum Indochina infected erythrocytes, osmotic lysis OD700; higher = more signal, called active from +8 up or from −8 down
Please reply with the value in numeric form only.

Examples with answers:
molecule | z-score
CN1C(=O)C2C=CC(C(O)C3CCCCC3)N(Nc3ccc([N+](=O)[O-])cc3[N+](=O)[O-])C2C1=O (configuration not stated) | 0.519
COC(=O)[C@@]1(Cc2ccc(OC)cc2)[C@H]2c3cc(C(=O)N(C)C)n(Cc4cccc5ccccc45)c3C[C@H]2CN1C(=O)c1ccccc1 | -0.206
C#CCNC(=O)[C@H](Cc1ccccc1)NC(=O)CCC(=O)O | 0.748
C=CCNC(=O)[C@H]1[C@@H]2C(=O)O[C@@H](c3ccccc3)[C@@H](c3ccccc3)N2[C@@H](c2ccc(OCCO)cc2)[C@]12C(=O)N(C(=O)OCCOC)c1ccccc12 | 0.926
CC(C)C[C@H]1NC(=O)[C@@]23C(=O)N[C@@H](Cc4ccccc4)C2[C@H](C)[C@@]2(C)O[C@H]2C3/C=C/C/C=C\CNC(=O)[C@H](Cc2ccccc2)NC1=O (some centres not stated) | -0.0365

Please look at this molecule and report its z-score: CCOC(=O)C[C@H]1[C@H](OC(=O)c2ccc(C(=O)c3ccccc3)cc2)[C@@H](NC(=O)c2ccc(-c3ccccc3)cc2)c2cc(OCCCO)ccc2N1C(=O)c1ccccc1
0.135

Please look at this molecule and report its z-score: O=C1O[C@H](c2ccccc2)[C@H](c2ccccc2)N2[C@H]1[C@@H](C(=O)O)[C@]1(C(=O)Nc3ccc(C#CC4=CCCCC4)cc31)[C@H]2c1ccccc1OCCO
-1.36

###

Listed here are compounds together with their documented composite z-score.
# System: wheat germ agglutinin (Triticum aestivum), Alexa647-labelled
# test-protocol: wheat germ agglutinin binders on compound microarrays, profiling panel, artefact control for SMM control-protein annotation, biochemical, small-molecule microarray, 635/667 nm fluorescence (AID 1140);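 also: score merges 667 nm feature emission with signal to noise over triplicate slides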
# condition-notes: WGA-A647 binding, 635 nm fluorescence, higher = more signal
Please reply with the value in numeric form only.

compound | test-target | property-name | observed-result
C=CC[C@]12N=C(c3ccc(OCCCO)cc3)O[C@H]1c1ccccc1N(Cc1ccccc1)C2=O | wheat germ agglutinin (Triticum aestivum), Alexa647-labelled | composite z-score | 0.442
COc1ccc(C(O)C2C=CC3C(=O)N(c4ccccc4)C(=O)C3N2Nc2ccc(C(C)C)cc2)cc1OCc1ccccc1 (centres undefined) | wheat germ agglutinin (Triticum aestivum), Alexa647-labelled | composite z-score | 1.22
C=CCNC(=O)[C@H]1[C@@H]2C(=O)O[C@@H](c3ccccc3)[C@@H](c3ccccc3)N2[C@@H](c2ccc(OCCO)cc2)[C@]12C(=O)Nc1ccc(C#CC3=CCCCC3)cc12 | wheat germ agglutinin (Triticum aestivum), Alexa647-labelled | composite z-score | 0.494
Cc1ccc(S[C@]2(C(=O)NCCN3CCOCC3)CC(=O)N(Cc3ccccc3)[C@@H]2c2ccc(CO)cc2I)cc1 | wheat germ agglutinin (Triticum aestivum), Alexa647-labelled | composite z-score | -0.592
CCCCC=C[C@@H](NC(=O)Oc1cccc(C(F)(F)F)c1)c1ccccc1 | wheat germ agglutinin (Triticum aestivum), Alexa647-labelled | composite z-score | 1.15
C=CCC(OC(C)=O)[C@@H]1[C@@H](N(Cc2ccc(-c3cccc(C(F)(F)F)c3)o2)C(=O)Cc2ccc(F)cc2)c2cc(OCCCO)ccc2N1C(=O)Cc1ccc(OC)cc1 (some centres undefined) | wheat germ agglutinin (Triticum aestivum), Alexa647-labelled | composite z-score | 0.114
O=C1O[C@H](c2ccccc2)[C@H](c2ccccc2)N2[C@H]1[C@@H](C(=O)Nc1nc3ccccc3s1)[C@]1(C(=O)Nc3ccc(C#CC4(O)CCCCCC4)cc31)[C@H]2c1ccc(OCCO)cc1 | wheat germ agglutinin (Triticum aestivum), Alexa647-labelled | composite z-score | 0.921
[N-]=[N+]=NCc1ccccc1C[C@]1(C(=O)NCC(O)CO)N=C(c2ccc(OCCCO)cc2)O[C@H]1c1ccccc1 (some centres undefined) | wheat germ agglutinin (Triticum aestivum), Alexa647-labelled | composite z-score | 0.228

Please look at this compound and report its composite z-score: COCCOC(=O)N1C(=O)[C@@]2(c3cc(C#Cc4ccc(OC)cc4)ccc31)[C@H](c1ccccc1OCCO)N1[C@H](c3ccccc3)[C@H](c3ccccc3)OC(=O)[C@H]1[C@@H]2C(=O)N1CCN(c2ncccn2)CC1
0.816

Please look at this compound and report its composite z-score: COc1cc(CO)cc(I)c1O[C@H]1C=C(C(=O)NCCO)C[C@@H](N(CCN2CCOCC2)C(=O)C2CCOC2)[C@@H]1O (some centres undefined)
-0.201

Please look at this compound and report its composite z-score: CC(C)c1ccc(NN2C(C(O)C(c3ccccc3)c3ccccc3)C=CC3C(=O)N(c4ccccc4)C(=O)C32)cc1 (centres undefined)
0.919

###

# System: Wnt5a (protein binding on small-molecule microarray)
# test-protocol: Wnt5a binders on small-molecule microarray, primary screen, biophysical, 635/667 nm fluorescence (AID 1142);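 also: fluorescence read at 667 nm with signal to noise per printed feature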
# condition-notes: 635 nm fluorescence, higher = more signal
property-name: composite z-score

compound | property-name | observed-result
CC1CC/C=C\[C@H]2OC34C=CCN(c5ccc(Cl)cc5)C(=O)[C@H]3N(CCO)C(=O)[C@]4(C)C2C(=O)O1 (some centres not stated) | composite z-score | -0.642

Please look at this compound and report its composite z-score: O=C1O[C@H](c2ccccc2)[C@H](c2ccccc2)N2[C@H]1[C@@H](C(=O)O)[C@]1(C(=O)Nc3ccc(C#CCCO)cc31)[C@H]2c1ccc(O)cc1
-0.0604

Please look at this compound and report its composite z-score: CCOC(=O)C[C@H]1[C@H](OC(=O)Cc2ccc3c(c2)OCO3)[C@@H](NC(=O)c2ccc3ccccc3c2)c2cc(OCCCO)ccc2N1C(=O)c1ccccc1
0.0819

Please look at this compound and report its composite z-score: CCCC[C@@H]1C[C@H]1[C@@H](NC(=O)c1ccco1)c1ccc(C(=O)OC)cc1
-0.195

Please look at this compound and report its composite z-score: COc1ccc(C(O)C2C=CC3C(=O)N(C)C(=O)C3N2N2CCCCC2)c2ccccc12 (configuration not stated)
0.533

Please look at this compound and report its composite z-score: O=C(c1ccccc1)N1Cc2ccccc2[C@@H]2OC(c3ccc(OCCCO)cc3)=N[C@]2(Cc2ccccc2)C1=O
0.624

Please look at this compound and report its composite z-score: COc1cc2c(cc1OC)CN(C(=O)[C@H]1[C@@H]3C(=O)O[C@@H](c4ccccc4)[C@@H](c4ccccc4)N3[C@@H](c3ccc(O)cc3)[C@]13C(=O)Nc1ccc(C#CCNC(N)=O)cc13)CC2
0.438
